assay: PSAC antagonists in infected red cells, primary screen, cell-based, P. falciparum Indochina, OD700, 1 h (AID 1154); conditions: P. falciparum Indochina infected RBC osmotic lysis, called active from +8 up or from −8 down
Activity calls are given as the source filed them.
Choose the fitting class; nothing outside active, inactive is accepted.

Examples from the recorded data:
compound-string	assigned-class
CO[C@H]1O[C@H](CO)[C@@H](OC(=O)Nc2ccc3c(c2)OCO3)[C@@H]2OC(=O)[C@@H](Cc3ccccc3)C/C=C/C[C@H](Cc3ccccc3)C(=O)O[C@@H]12	inactive
NCCCC[C@@H]1NC(=O)[C@H]2C[C@@H](C(=O)NCc3ccc(F)cc3)[C@@H](c3cccc(OCCO)c3)N2C1=O	inactive

(Q) Test call for this compound, please: COC(=O)c1c(CC[C@@H](CO)NC(=O)N[C@@H](Cc2ccccc2)Cn2cc(-c3cncn3C)nn2)oc(C(C)=O)c1C(=O)OC
(A) inactive

(Q) Test call for this compound, please: CCOC(=O)C1=C(C(=O)OCC)N(S(=O)(=O)CC[Si](C)(C)C)[C@H](c2ccccc2)CC1
(A) inactive

---

assay: Plasmodium falciparum growth inhibition, primary screen, strain 3D7, DAPI fluorescence, 100 nL (AID 1184);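 also: parasites grown inside human red blood cells in medium with human serum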; settings: P. falciparum 3D7 growth, 3 d, higher = more signal
Decision: z-score >= -1 yields Y, all other cases yield N.

molecule	assigned-class
COCCCNC(=O)[C@@]1(Sc2ccc(C)cc2)CC(=O)N(C2CCCCC2)[C@@H]1c1ccc(CO)cc1I	N

(Q) Does the molecule O=C1NC(=O)C2C1C=CC(C(O)c1ccc(F)cc1)N2Nc1ccccn1 (stereo unspecified) have recorded z-score that is -1 or more?
(A) Y

(Q) Does the molecule CC(C)C(=C=CC[C@@H](O)c1ccccc1OCCO)C[C@@H](O)c1cc(Cl)cc(Cl)c1O have recorded z-score that is -1 or more?
(A) N

(Q) Does the molecule C=CCC(OC(C)=O)[C@@H]1[C@@H](N(Cc2ccc(-c3cccc(C(F)(F)F)c3)o2)C(=O)Cc2ccc(F)cc2)c2cc(OCCCO)ccc2N1C(=O)c1ccc2ccccc2c1 (stereo partly specified) have recorded z-score that is -1 or more?
(A) Y

(Q) Does the molecule COCCOC(=O)N1C(=O)[C@@]2(c3cc(C#CC4(O)CCCCCC4)ccc31)[C@H](C(=O)N1CCc3cc(OC)c(OC)cc3C1)[C@H]1C(=O)O[C@H](c3ccccc3)[C@H](c3ccccc3)N1[C@@H]2c1ccc(O)cc1 have recorded z-score that is -1 or more?
(A) N

(Q) Does the molecule C=CCC(OC(C)=O)[C@@H]1[C@@H](N(Cc2ccc(-c3cccc(C(F)(F)F)c3)o2)C(=O)c2cccc3ccccc23)c2cc(OCCCO)ccc2N1C(=O)c1ccc2ccccc2c1 (stereo partly specified) have recorded z-score that is -1 or more?
(A) N

---

test: binders of probe aFSTL3 on microarray, primary screen, stem cell growth factor project, biochemical, small-molecule microarray, fluorescence 635/667 (AID 1064); details: higher = more signal;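 also: measures binding of the biotinylated anti-FSTL3 antibody to printed compounds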
assay-readout: composite z-score
Respond using a number only.

Some entries whose results are on file:
molecule	composite z-score
NC(=O)[C@@]1(CCS(=O)(=O)c2ccccc2)COC(c2ccc(OCCCO)cc2)=N1	0.615
C=CC(CO)NC(=O)OCC1c2ccccc2-c2ccccc21 (stereo unspecified)	-0.165
CC(=O)NCCCC[C@@H]1NC(=O)[C@@H]2C[C@H](C(=O)NCCCCCC[N+](C)(C)C)[C@H](c3ccc(O)cc3)N2C1=O	0.101
C=C(/C(=C/C[C@@H](OC(C)=O)c1ccccc1OCCO)c1cc(C(=O)OC)ccc1OC)C(C)C	-0.101
O=C1N(Cc2ccccc2)c2ccccc2[C@H]2OC(c3ccc(OCCCO)cc3)=N[C@@]12Cc1ccccc1	0.85
N#Cc1ccc(C(O)C2C=CC3C(=O)N(c4ccccc4)C(=O)C3N2Nc2ccc([N+](=O)[O-])cc2)cc1 (stereo unspecified)	0.561
COCCOC(=O)N1C(=O)[C@@]2(c3ccccc31)[C@H](C(N)=O)[C@H]1C(=O)O[C@H](c3ccccc3)[C@H](c3ccccc3)N1[C@@H]2c1ccc(OCCO)cc1	-0.4
CC(C)c1ccc(NN2C(C(O)C(C)C)C=CC3C(=O)N(c4ccccc4)C(=O)C32)cc1 (stereo unspecified)	0.733

(Q) What value of measured composite z-score is listed for N#Cc1ccc(C(O)C2C=CC3C(=O)NC(=O)C3N2Nc2ccccn2)cc1 (stereo unspecified) ?
(A) -0.0872

(Q) What value of measured composite z-score is listed for COCCOC(=O)N1C(=O)[C@@]2(c3cc(C#CC4=CCCCC4)ccc31)[C@H](c1ccc(OCCO)cc1)N1[C@H](c3ccccc3)[C@H](c3ccccc3)OC(=O)[C@H]1[C@@H]2C(=O)N1CCCCCCC1 ?
(A) 2.32

(Q) What value of measured composite z-score is listed for CCOC(=O)C1=C[C@@H](C(C)(C)C)N(S(=O)(=O)c2ccc(C)cc2)[C@H]1c1ccccc1Cl ?
(A) 0.284

(Q) What value of measured composite z-score is listed for CC(C)[C@@H](C(=O)O)n1cc(-c2ccccc2)nn1 ?
(A) 0.272

(Q) What value of measured composite z-score is listed for COc1ccc([Si](C)(C)[C@H]2[C@H](CCn3cc([C@H](O)c4ccccc4)nn3)O[C@@]3(C(=O)N(C)c4c(Br)cc(C)cc43)[C@@H]2C)cc1 ?
(A) -0.0258

(Q) What value of measured composite z-score is listed for COc1cc(OC)c(C(O)C2C=CC3C(=O)N(c4ccccc4)C(=O)C3N2Nc2ccccc2F)cc1Br (stereo unspecified) ?
(A) 0.0776

(Q) What value of measured composite z-score is listed for COC(=O)[C@@]1(CCC(=O)OC(C)(C)C)N=C(c2ccc(OCCCO)cc2)O[C@H]1c1ccccc1CN=[N+]=[N-] ?
(A) 0.0643

(Q) What value of measured composite z-score is listed for COC(=O)C1=CC(CCCO)=CC(C2CC2)N(Cc2cccc(OC(F)(F)F)c2)C=C1C(=O)OC (stereo unspecified) ?
(A) -0.207
